# TESTED_TARGET: T1, 4H2162-bN
# T1 chain: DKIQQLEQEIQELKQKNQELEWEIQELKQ
# EXPERIMENTAL_DETAILS: two-hybrid library CCNG1;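 further: natural log of median RNA to DNA barcode read ratio; higher means stronger binding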
READOUT_NAME: interaction score

# example entries with known answers
INSERT INTO assay_data (binder, recorded_result) VALUES
  ('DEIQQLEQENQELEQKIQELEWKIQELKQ [4H166-bN]', 0.326),
  ('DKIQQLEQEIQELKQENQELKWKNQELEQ [4H2143-bN]', 0.354);

[I] DENQQLEQKIQELKQKIQELKWENQELEQ [4H1387-bN]
[II] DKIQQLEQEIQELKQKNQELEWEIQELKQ [4H2162-bN]
Decide: I or II , by lowest recorded interaction score. Bench note: the answer is the label of the chosen record.
I
(I: -2.27, II: 1.61)
